# Lookup of reported fluorescence slope keyed by entry
- ASSAYED_SYSTEM: Voltage-gated potassium channel subunit beta-2 (Rattus norvegicus)
- EXPERIMENTAL_DETAILS: KvBeta enzyme negative modulators, primary screen, biochemical, NADPH fluorescence (AID 622);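 further: slope of raw intensity against log time taken from 70 to 1610 s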
- TEST_SETTINGS: recombinant KvBeta, 4-cyanobenzaldehyde reduction, at 10 µM, active compounds read high
Give only the figure.

MOLECULE: COc1ccc(-n2c(Cc3cccn3C)nnc2SCC(=O)Nc2cccc(OC)c2)cc1
ASSAYED_SYSTEM: Voltage-gated potassium channel subunit beta-2 (Rattus norvegicus)
QUANTITY_MEASURED: fluorescence slope
VALUE_MEASURED: -0.632

Indicate the recorded fluorescence slope value for this molecule: C=CCOc1ccc(/C(O)=C2/C(=O)C(=O)N(CCCN3CCOCC3)C2c2ccc(OC)cc2)cc1 (stereo not given)
-0.455

Indicate the recorded fluorescence slope value for this molecule: CCOc1cccc(C(=O)N2CCCCC2c2cccnc2)c1 (stereo not given)
-0.526

Indicate the recorded fluorescence slope value for this molecule: COC(=O)C(C)Sc1nc2c(c(=O)n(C)c(=O)n2C)n1CCC(C)C (stereo not given)
-0.42

Indicate the recorded fluorescence slope value for this molecule: `O=S(=O)(c1cccc(-c2csc(-c3ccccc3)n2)c1)N1CCOCC1`
-0.452

Indicate the recorded fluorescence slope value for this molecule: `Cc1nc2c(c(N3CCOCC3)n1)OCC(=O)N2`
-0.454

Indicate the recorded fluorescence slope value for this molecule: `COc1ccc(N2CCN(C(=O)c3c(-c4ccccc4)noc3C)CC2)cc1`
-0.578

Indicate the recorded fluorescence slope value for this molecule: O=C(NCC(=O)N(c1cnc2ccccc2c1)C(C(=O)NC1CCCC1)c1ccncc1)c1ccco1 (stereo not given)
-0.532

Indicate the recorded fluorescence slope value for this molecule: `Cn1c(=O)c2c3c(sc2n2c(SCC(=O)c4ccccc4)nnc12)COC(C)(C)C3`
-0.511

Indicate the recorded fluorescence slope value for this molecule: `O=S(=O)(Nc1ccc2c(c1)OCO2)c1ccc(Br)s1`
-0.31
